Tested on: SW48 colon cancer cells
run-description: Human tumor xenograft in vivo, SW48
experimental-setup: Mus musculus, 30 mg/kg ip, mice, read-out: % Inhibition (relative to vehicle control) SW48
I'd appreciate it if you could supply inhibition in vivo at 30 mg/kg values for the items below.
Reply with just the number (in %).

Exercise: Which inhibition in vivo at 30 mg/kg value belongs to COc1ccc(CCNc2ccnc(NCc3ccc(C(=O)Nc4ccccc4N)cc3)n2)cc1OC [10a] ?
Solution: 23

Exercise: Which inhibition in vivo at 30 mg/kg value belongs to "CCC(=O)Nc1sc(Cc2ccc(C(=O)Nc3ccccc3N)cc2)cc1C(N)=O" ?
Solution: 53.4

Exercise: Which inhibition in vivo at 30 mg/kg value belongs to COCOC(C)(C)c1ccc(-c2ccnc(NCc3ccc(C(=O)Nc4ccccc4N)cc3)n2)cn1 [58b] ?
Solution: 34.6
